Target: TYK2 (Homo sapiens, UniProt P29597)
Sequence (P29597 whole entry): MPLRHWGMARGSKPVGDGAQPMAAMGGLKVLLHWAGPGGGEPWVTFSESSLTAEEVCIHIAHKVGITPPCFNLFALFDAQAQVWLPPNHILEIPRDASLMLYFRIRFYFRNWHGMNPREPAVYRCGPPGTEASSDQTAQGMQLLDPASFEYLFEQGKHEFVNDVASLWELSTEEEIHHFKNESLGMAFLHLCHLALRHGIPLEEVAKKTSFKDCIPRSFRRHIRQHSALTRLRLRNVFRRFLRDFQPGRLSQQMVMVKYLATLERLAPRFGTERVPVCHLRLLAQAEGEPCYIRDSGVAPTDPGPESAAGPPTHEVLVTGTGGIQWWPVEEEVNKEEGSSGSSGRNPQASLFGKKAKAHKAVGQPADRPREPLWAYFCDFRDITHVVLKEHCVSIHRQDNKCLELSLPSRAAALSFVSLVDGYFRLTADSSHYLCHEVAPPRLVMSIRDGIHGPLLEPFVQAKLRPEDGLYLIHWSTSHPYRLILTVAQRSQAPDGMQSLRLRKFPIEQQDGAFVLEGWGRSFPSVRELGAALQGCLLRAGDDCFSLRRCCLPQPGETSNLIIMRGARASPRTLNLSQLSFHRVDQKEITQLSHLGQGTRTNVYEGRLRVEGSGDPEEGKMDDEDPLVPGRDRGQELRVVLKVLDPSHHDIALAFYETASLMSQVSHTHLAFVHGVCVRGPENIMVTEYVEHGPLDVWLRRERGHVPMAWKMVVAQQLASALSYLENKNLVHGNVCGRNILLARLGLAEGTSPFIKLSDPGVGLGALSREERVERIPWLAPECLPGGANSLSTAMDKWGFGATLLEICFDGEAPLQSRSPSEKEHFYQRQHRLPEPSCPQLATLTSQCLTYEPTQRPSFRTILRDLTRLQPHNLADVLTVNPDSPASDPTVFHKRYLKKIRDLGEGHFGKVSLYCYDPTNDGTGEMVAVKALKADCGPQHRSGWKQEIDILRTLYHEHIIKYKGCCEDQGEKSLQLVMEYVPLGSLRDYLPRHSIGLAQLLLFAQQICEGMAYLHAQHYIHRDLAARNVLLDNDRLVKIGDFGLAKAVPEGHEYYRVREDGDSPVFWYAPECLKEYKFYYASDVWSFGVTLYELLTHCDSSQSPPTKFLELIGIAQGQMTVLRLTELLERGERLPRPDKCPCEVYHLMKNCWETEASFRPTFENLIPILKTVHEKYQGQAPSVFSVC
Experiment: TYK2 kinase inhibition (Table A1)
Type: biochemical
pIC50: −log10 of the molar value. Structures can show the parent of a compound that is named as a salt.
Values of pIC50 greater than or equal to 7 map to True; values below map to False.

See these solved cases before continuing.
O=C(Nc1ccc2cc1CCc1cccc(c1)Nc1ncc(Cl)c(n1)N2)C1CCN(C(=O)Cc2ccccc2)CC1 [Example A35, trifluoroacetate] ... False
N#Cc1ccccc1S(=O)(=O)N1CCC(CC(=O)Nc2ccc3cc2CCc2cncc(c2)Nc2ncc(Cl)c(n2)N3)CC1 [Example A198, bis(trifluoroacetate)] ... True
O=C(CC1CCN(c2cccc(Cl)n2)CC1)Nc1ccc2cc1CCc1cncc(c1)Nc1ncc(Cl)c(n1)N2 [Example A180, tris(trifluoroacetate)] ... False

[ask] Reported pIC50 reaches at least 7 for Cc1ccc(C(=O)N2Cc3cccc(c3)Nc3ncc(Cl)c(n3)Nc3cccc2c3)cc1 ?
[reply] False

[ask] O=C(CC1CCNC1)Nc1ccc2cc1CCc1cncc(c1)Nc1ncc(Cl)c(n1)N2 (stereo not shown) [Example A105, tris(trifluoroacetate)] ?
[reply] True

[ask] Fc1cnc2nc1Nc1cccc(c1)CCc1cncc(c1)N2 [Example C21, bis(trifluoroacetate)] ?
[reply] True

[ask] O=C(CC1CCN(C(=O)c2ccno2)CC1)Nc1ccc2cc1CCc1cncc(c1)Nc1ncc(Cl)c(n1)N2 [Example A128, bis(trifluoroacetate)] ?
[reply] True

[ask] O=C(Cc1ccccn1)Nc1ccc2cc1CCc1cccc(c1)Nc1ncc(Cl)c(n1)N2 [Example C41, bis(trifluoroacetate)] ?
[reply] False

[ask] COc1ccc(S(=O)(=O)N2CCC(CC(=O)Nc3ccc4cc3CCc3cncc(c3)Nc3ncc(Cl)c(n3)N4)CC2)cc1 [Example A197, bis(trifluoroacetate)] ?
[reply] False

The origin of these recorded values is patent US8871753B2.
